# Method Summary: chemical genetic growth profiling, strain panel (AID 1159580);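 note: tested at 20 µM; growth read once vehicle control cultures reached saturation at 30 °C; 1 = growth at the plate median or of vehicle wells; lower values mean less growth of the strain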
# Conditions Used: S. cerevisiae deletion strains, growth OD, locus YDR363W, strain ESC2, active compounds read low
Out of some 5,500 compounds screened, about 2,000 (36%) were called active. Roughly 18% stayed inconclusive and do not appear here. Some of the results follow.
Entries and their measured normalized growth follow.
In your answer, state the number alone without any accompanying words.

>>> assay_value("Cc1nc2c([nH]1)c(=O)n(C)c(=O)n2Cc1ccco1")
1.03
>>> assay_value("c1ccc2sc(C3(N4CCCCC4)CCCCC3)cc2c1")
0.937
>>> assay_value("CN(N=O)c1ccc(O)c(O)c1")
0.928
>>> assay_value("CNc1cc(NS(=O)(=O)c2ccc(N)cc2)nc(NC)n1")
0.974

Challenge: Endpoint output: normalized growth of CC1=C(CC(=O)O)c2cc(F)ccc2/C1=C\c1ccc(S(C)=O)cc1 (configuration not stated) . Value?
Response given: 0.995

Challenge: Endpoint output: normalized growth of Cn1cnc(CCN)c1 . Value?
Response given: 0.979

Challenge: Endpoint output: normalized growth of CC1(C(=O)O)C2CCC(O2)C1(C)C(=O)O (configuration not stated) . Value?
Response given: 0.982

---

# Method Summary: chemical genetic growth profiling, strain panel (AID 1159580)
# Conditions Used: S. cerevisiae deletion strains, growth OD, locus YML032C, strain rad52, active compounds read low
Among all 5,500 compounds or so, about 2,000 (36%) were called active. Not shown: some 18% with an inconclusive outcome. This is one part of the list.
Entries and their measured normalized growth follow.

Challenge: Endpoint output: normalized growth of CCCCCCCCCCCCCCCC[N+](C)(C)C . Value?
Response given: 0.0653 (active)

---

# Method Summary: chemical genetic growth profiling, strain panel (AID 1159580)
# Conditions Used: S. cerevisiae deletion strains, growth OD, locus YNL222W, strain SSU72
The whole screen tested about 5,500 compounds, of which about 2,000 (36%) were called active. Not shown: some 18% with an inconclusive outcome. Rule as the data show it: active = normalized growth mostly below about 0.91 (no sharp cut-off); inconclusive = no clear call, values can overlap the other calls; inactive = mostly above about 0.92. This is one part of the list.
Respond only with the outcome that fits, drawn from YES = active, NO = inactive

Before answering, review these 4 worked examples.
>>> assigned_label("O=C1C(=O)N(CN2CCc3c([nH]c4ccccc34)C2C(F)(F)F)c2ccc(F)cc21 (configuration not stated)")
"NO"
>>> assigned_label("Cc1cc(Cl)ccc1NNC(=O)c1ccno1")
"NO"
>>> assigned_label("Cc1cc(C(=O)Nc2ccc(Cl)cc2)nn1C(C)(C)C")
"NO"
>>> assigned_label("CS(=NC(=O)c1cccc(Cl)c1)c1ccc(OC(=O)c2ccc(Cl)cc2)cc1 (configuration not stated)")
"NO"

Challenge: Please indicate how the test categorized N#Cc1ccc(S(=O)(=O)Nc2ccccc2Oc2ccc(Cl)cc2Cl)cc1 .
Response given: NO

Challenge: Please indicate how the test categorized O=C(N/C=C/c1ccsc1)Nc1cc(C(F)(F)F)cc(C(F)(F)F)c1 .
Response given: NO

Challenge: Please indicate how the test categorized COc1ccc(NNC(=O)c2sc3ccccc3c2Cl)cc1 .
Response given: NO

Challenge: Please indicate how the test categorized Cc1cc(C(=O)NNc2ccc(F)cc2F)no1 .
Response given: NO

Challenge: Please indicate how the test categorized CC(C)(C)CN/C(C#N)=C(/C#N)NCc1cccc(Cl)c1 .
Response given: NO

---

Entries and their measured normalized growth follow.
# Method Summary: chemical genetic growth profiling, strain panel (AID 1159580)
# Conditions Used: S. cerevisiae deletion strains, growth OD, locus YHR205W, strain SCH9, active compounds read low
The campaign covered roughly 5,500 compounds. About 2,000 (36%) were called active. Inconclusive results (about 18%) are left out. The list shows a part of the results.
In your answer, state the number alone without any accompanying words.

Below, each entry is followed by its recorded normalized growth result.
>>> assay_value("Cc1ccc2nc(-c3ccc(Cl)cc3)cn2c1")
0.966
>>> assay_value("Cc1nnsc1C(=O)Nc1cc(C(F)(F)F)cc(C(F)(F)F)c1")
0.846
>>> assay_value("O=c1c(Sc2ccc(Cl)cc2)c(Sc2ccc(Cl)cc2)c1=O")
0.121

Challenge: Endpoint output: normalized growth of O=C1C(=O)N(CN2CCc3c([nH]c4ccccc34)C2C(F)(F)F)c2ccc(F)cc21 (configuration not stated) . Value?
Response given: 0.795

Challenge: Endpoint output: normalized growth of S=C(Nc1ccc(Cl)cc1Cl)N(c1cccc(Cl)c1)c1nc2ccccc2s1 . Value?
Response given: 0.778

Challenge: Endpoint output: normalized growth of COc1cc(NC(=S)N(C)C)c(OC)cc1Cl . Value?
Response given: 0.963

Challenge: Endpoint output: normalized growth of Cc1cc(Cl)ccc1NNC(=O)c1ccno1 . Value?
Response given: 0.902

Challenge: Endpoint output: normalized growth of CC(C)(C)CN/C(C#N)=C(/C#N)NCc1cccc(Cl)c1 . Value?
Response given: 0.896

Challenge: Endpoint output: normalized growth of O=C(CSc1nnnn1-c1ccccc1)c1ccccc1 . Value?
Response given: 0.661

Challenge: Endpoint output: normalized growth of Cc1cc(Cl)ccc1NNC(=O)c1snnc1C . Value?
Response given: 0.919

Challenge: Endpoint output: normalized growth of COc1ccc(/C=C2\CSc3ccc(F)cc3C2=O)cc1 . Value?
Response given: 0.899

Challenge: Endpoint output: normalized growth of Cc1nn(Cc2cccc(C(=O)Nc3ccc(Cl)cc3)c2)c(C)c1Br . Value?
Response given: 1.01

---

# Method Summary: chemical genetic growth profiling, strain panel (AID 1159580);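 note: tested at 20 µM; growth read once vehicle control cultures reached saturation at 30 °C; 1 = growth at the plate median or of vehicle wells; lower values mean less growth of the strain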
# Conditions Used: S. cerevisiae deletion strains, growth OD, locus YIL066C, strain RNR3, active compounds read low
Hit rate of the full screen: of about 5,500 compounds, about 2,000 (36%) were called active. About 18% were inconclusive and are not listed. Some of the results follow.
Measured Attribute: normalized growth
In your answer, state the number alone without any accompanying words.

Below, each entry is followed by its recorded normalized growth result.
>>> assay_value("S=c1nc[nH]c2nc[nH]c12")
1
>>> assay_value("CN[C@@H](C)[C@@H](O)c1ccccc1")
0.926
>>> assay_value("CC(NCCc1ccc(O)cc1)C(O)c1ccc(O)cc1 (stereo unspecified)")
0.99
>>> assay_value("CNC(C)[C@H](O)c1ccccc1 (stereo partly specified)")
1.03
>>> assay_value("CCCCCCCCNC(C)C(O)c1ccc(SC(C)C)cc1 (stereo unspecified)")
0.0459

Here is the next item to consider.
Challenge: Endpoint output: normalized growth of C[C@@H]1[C@H]2[C@H](O[C@@H]3O[C@H](CO)[C@@H](O)[C@H](O)[C@H]3O)OC=C(C(=O)O)[C@H]2C[C@@H]1O . Value?
Response given: 1

---

Entries and their measured normalized growth follow.
# Method Summary: chemical genetic growth profiling, strain panel (AID 1159580);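 note: tested at 20 µM; growth read once vehicle control cultures reached saturation at 30 °C; 1 = growth at the plate median or of vehicle wells; lower values mean less growth of the strain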
# Conditions Used: S. cerevisiae deletion strains, growth OD, locus YNL197C, strain WHI3, active compounds read low
Hit rate of the full screen: of about 5,500 compounds, about 2,000 (36%) were called active. Not shown: some 18% with an inconclusive outcome. The list shows a part of the results.
In your answer, state the number alone without any accompanying words.

Below, each entry is followed by its recorded normalized growth result.
>>> assay_value("CC(=O)[C@H]1CC[C@H]2[C@@H]3CCC4=CC(=O)CC[C@]4(C)[C@H]3CC[C@]12C")
0.986
>>> assay_value("OCc1ccc(-c2nn(Cc3ccccc3)c3ccccc23)o1")
0.972
>>> assay_value("Cn1cnc(CCN)c1")
0.992
>>> assay_value("C/C=C1\\C(=O)CC2C3CCC4=CC(=O)CC[C@]4(C)C3CC[C@]12C (stereo not given in full)")
0.978

Challenge: Endpoint output: normalized growth of C[C@]12CCC(=O)C=C1CC[C@@H]1[C@@H]2CC[C@]2(C)C(=O)CC[C@@H]12 . Value?
Response given: 0.997

---

# Method Summary: chemical genetic growth profiling, strain panel (AID 1159580);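 note: tested at 20 µM; growth read once vehicle control cultures reached saturation at 30 °C; 1 = growth at the plate median or of vehicle wells; lower values mean less growth of the strain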
# Conditions Used: S. cerevisiae deletion strains, growth OD, locus YMR205C, strain PFK2, active compounds read low
Hit rate of the full screen: of about 5,500 compounds, about 2,000 (36%) were called active. Roughly 18% stayed inconclusive and do not appear here. Some of the results follow.
Measured Attribute: normalized growth
In your answer, state the number alone without any accompanying words.

>>> assay_value("CCN(CC)CCCC(C)Nc1c2ccc(Cl)cc2nc2ccc(OC)cc12 (centres undefined)")
0.973
>>> assay_value("CC(=O)OCC(=O)[C@@]1(O)CCC2C3CCC4=CC(=O)CC[C@]4(C)C3C(=O)C[C@@]21C (some centres undefined)")
0.983
>>> assay_value("NCC1CCC(C(=O)O)CC1 (centres undefined)")
0.989

Challenge: Endpoint output: normalized growth of CC(C(=O)O)c1ccc(-c2ccccc2)c(F)c1 (centres undefined) . Value?
Response given: 1.03

Challenge: Endpoint output: normalized growth of Cc1cc(O)c(C=O)c(O)c1C(=O)O . Value?
Response given: 1.05

Challenge: Endpoint output: normalized growth of CCCCCCNC(=O)n1cc(F)c(=O)[nH]c1=O . Value?
Response given: 0.898

Challenge: Endpoint output: normalized growth of CC(=O)OCC[N+](C)(C)C . Value?
Response given: 1.08

Challenge: Endpoint output: normalized growth of CN(C)CC/C=C1\c2ccccc2Sc2ccc(Cl)cc21 . Value?
Response given: 0.921
